Tested on: VchCAST RNA-guided transposition machinery (E. coli BL21(DE3) host, lacZ target)
Experiment: relative integration efficiency (T-RL orientation) vs wild-type transposon end (log2 (normalized fold change)); transposon end mutated: right end (5 bp flank + 75 bp right end); higher = more efficient transposition
Quantity kind: relative integration efficiency (log2)

Construct sequence: ACATTTGTTGATACAACCATAAAATGATAATTACACCCATAAATTGATAAAAATCACACCCATAAATTGATATTGCCTCTGATCATAGTCAGACCAACATTGCTACGACCCGTATTCGCACCGACAC
Tgt: VchCAST RNA-guided transposition machinery (E. coli BL21(DE3) host, lacZ target)
Result: -0.355

Construct sequence: ACATTAGTGGATACAACCATAAAATGATAATTACACCCATAAATGGATAATTATCACACCCAATTTAACTATAACGCTCTGATCATAGTCAGACCAACATTGCTACGACCCGTATTCGCACCGACAC
Tgt: VchCAST RNA-guided transposition machinery (E. coli BL21(DE3) host, lacZ target)
Result: -7.08

Construct sequence: ACATTTGTTGATACAACCATAAAATCATAATTACACCCATCAATTGATAATTATCACACCCAATTTAACTATAACGCTCTGATCATAGTCAGACCAACATTGCTACGACCCGTATTCGCACCGACAC
Tgt: VchCAST RNA-guided transposition machinery (E. coli BL21(DE3) host, lacZ target)
Result: -4.01

Construct sequence: ACATTTGTTGATACAACCATAAAATGATCATTACCCCCATAAATTGATAATTATCACACCCAATTTAACTATAACGCTCTGATCATAGTCAGACCAACATTGCTACGACCCGTATTCGCACCGACAC
Tgt: VchCAST RNA-guided transposition machinery (E. coli BL21(DE3) host, lacZ target)
Result: -1.95

Construct sequence: ACATTTGTTGATACAACCATAAAATGATAATTACACCCATAAATTGATAATTATCAGTCCCATAAATTGATATTGCCTCTGATCATAGTCAGACCAACATTGCTACGACCCGTATTCGCACCGACAC
Tgt: VchCAST RNA-guided transposition machinery (E. coli BL21(DE3) host, lacZ target)
Result: -0.441
